Entries and their measured IC50 follow.
- SYSTEM: HLA-B5801 (Homo sapiens, UniProt P01889, A329T/C349S/D201E/D98Y/E176V/E187L/E204Q/E69T/G107R/I218V/I90N/K202T/L105A/L119I/N104I/N87E/Q89R/Q94S/R106L/R155S/R180L/R86G/S101N/S121R/S35A/S48A/T118I/V127L/V306I/V36M/Y140S/Y91M)
- METHOD_NOTES: Competitive peptide binding assay, CIR-B5801
- MEASUREMENT_PARAMETERS: HMy2.CIR-B5801 cells, reference Cy5-[…], class from inhibition at 5 and 15 μM, flow cytometry MFI; read-out: Binding affinity with HLA-B5801
Peptide text beside a SMILES is read from it.

Would you please look over these solved cases?
MOLECULE | IC50
CC[C@H](C)[C@H](NC(=O)[C@H](Cc1ccc(O)cc1)NC(=O)[C@H](CCC(N)=O)NC(=O)[C@H](CCC(=O)O)NC(=O)[C@@H](N)Cc1ccc(O)cc1)C(=O)N[C@@H](CCCCN)C(=O)N[C@@H](Cc1c[nH]c2ccccc12)C(=O)N1CCC[C@H]1C(=O)N[C@@H](Cc1c[nH]c2ccccc12)C(=O)O [Epitope Y230] (H-YEQYIKWPW-OH; N-terminus and C-terminus assumed) | 5 to 15 µM
CC(C)C[C@H](NC(=O)[C@@H](NC(=O)[C@@H](NC(=O)CNC(=O)[C@H](CCC(N)=O)NC(=O)[C@@H]1CCCN1C(=O)[C@H](CC(C)C)NC(=O)[C@H](CCC(N)=O)NC(=O)[C@@H](N)CC(C)C)[C@@H](C)O)[C@@H](C)O)C(=O)O [Epitope Y61] (H-LQLPQGTTL-OH; N-terminus and C-terminus assumed) | 5 to 15 µM
CSCC[C@H](NC(=O)[C@H](C)NC(=O)[C@@H](N)Cc1ccccc1)C(=O)N[C@@H](CCC(N)=O)C(=O)N[C@@H](CCSC)C(=O)N[C@@H](C)C(=O)N[C@@H](Cc1ccc(O)cc1)C(=O)N[C@@H](CCCNC(=N)N)C(=O)N[C@@H](Cc1ccccc1)C(=O)O [Epitope Y189] | > 15 µM

Lookup: Given the entry CC(C)C[C@H](NC(=O)[C@H](CC(C)C)NC(=O)[C@H](CC(C)C)NC(=O)[C@H](C)NC(=O)[C@H](CC(C)C)NC(=O)[C@H](C)NC(=O)[C@H](C)NC(=O)[C@H](CC(=O)O)NC(=O)CN)C(=O)O [Epitope Y65] (H-GDAALALLL-OH; N-terminus and C-terminus assumed) , report its measured IC50.
Found: 5 to 15 µM

Lookup: Given the entry CC(C)C[C@H](N)C(=O)N1CCC[C@H]1C(=O)N[C@@H](CC(N)=O)C(=O)N[C@@H](CC(N)=O)C(=O)N[C@H](C(=O)N[C@@H](C)C(=O)N[C@@H](CO)C(=O)N[C@@H](Cc1c[nH]c2ccccc12)C(=O)N[C@@H](Cc1ccccc1)C(=O)O)[C@@H](C)O [Epitope Y17] (H-LPNNTASWF-OH; N-terminus and C-terminus assumed) , report its measured IC50.
Found: > 15 µM
